Each record here notes measured Emax.
# STUDY TARGET: Mu-type opioid receptor (Mus musculus)
# Sequence (P42866 whole entry): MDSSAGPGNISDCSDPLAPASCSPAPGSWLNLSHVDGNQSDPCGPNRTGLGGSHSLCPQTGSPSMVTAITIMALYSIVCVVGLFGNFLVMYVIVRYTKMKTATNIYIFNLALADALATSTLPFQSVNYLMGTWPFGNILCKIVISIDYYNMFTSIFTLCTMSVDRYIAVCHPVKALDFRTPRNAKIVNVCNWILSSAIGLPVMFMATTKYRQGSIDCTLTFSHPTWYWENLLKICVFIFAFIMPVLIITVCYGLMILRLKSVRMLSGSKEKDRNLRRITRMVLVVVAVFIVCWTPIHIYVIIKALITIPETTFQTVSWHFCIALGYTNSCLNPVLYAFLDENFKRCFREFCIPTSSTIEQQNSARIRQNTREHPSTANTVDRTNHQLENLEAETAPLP
# ASSAY: Binding affinity to mouse mu opioid receptor expressed in CHO cell membrane assessed as stimulation of [35S]-GTPgammaS binding by measuring maximal efficacy incubated for 1.5 hrs by scintillation spectroscopy analysis relative DAMGO
# Type: cell membranes
The answer is to be given in %; state only the numeric part.

Example cases with answers are listed next.
# INPUT SMILES, STUDY TARGET, UNIT OF MEASURE, Emax
rows = [
    ("O=C(N[C@@H]1CC[C@@]2(O)[C@H]3Cc4ccc(O)c5c4[C@@]2(CCN3CC2CC2)[C@H]1O5)c1cccc2c(C3CCCCC3)c[nH]c12", "Mu-type opioid receptor (Mus musculus)", "%", 6.23),
    ("O=C(N[C@H]1CC[C@@]2(O)[C@H]3Cc4ccc(O)c5c4[C@@]2(CCN3CC2CC2)[C@H]1O5)c1cccc2c([N+](=O)[O-])c[nH]c12", "Mu-type opioid receptor (Mus musculus)", "%", 11.3),
    ("CC(=O)c1c[nH]c2c(C(=O)N[C@H]3CC[C@@]4(O)[C@H]5Cc6ccc(O)c7c6[C@@]4(CCN5CC4CC4)[C@H]3O7)cccc12", "Mu-type opioid receptor (Mus musculus)", "%", 9.81),
]

Shifting focus to the compound that follows.
Query string: Fill blank: measured Emax of the compound O=C(N[C@@H]1CC[C@@]2(O)[C@H]3Cc4ccc(O)c5c4[C@@]2(CCN3CC2CC2)[C@H]1O5)c1cccc2cc(Cl)[nH]c12 is ____.
Result string: 38.5

---

Each record here notes measured Ki.
# STUDY TARGET: Mu-type opioid receptor (Mus musculus)
The answer is to be given in nM; state only the numeric part.

Example cases with answers are listed next.
# INPUT SMILES, REPORTED
rows = [
    ("O=C(N[C@H]1CC[C@@]2(O)[C@H]3Cc4ccc(O)c5c4[C@@]2(CCN3CC2CC2)[C@H]1O5)c1cccc2c(Cl)c[nH]c12", 0.98),
    ("O=C(N[C@H]1CC[C@@]2(O)[C@H]3Cc4ccc(O)c5c4[C@@]2(CCN3CC2CC2)[C@H]1O5)c1cccc2c(-c3ccccc3)c[nH]c12", 2.37),
]

Query string: Fill blank: measured Ki of the compound N#Cc1cc2cccc(C(=O)N[C@H]3CC[C@@]4(O)[C@H]5Cc6ccc(O)c7c6[C@@]4(CCN5CC4CC4)[C@H]3O7)c2[nH]1 is ____.
Result string: 0.87
